We begin with a simple list: items and their reported Ki.
Target Or System: Nicotinic acetylcholine receptor alpha 5 subunit (Musca domestica, UniProt A9XFY4)
Sequence (A9XFY4 whole entry): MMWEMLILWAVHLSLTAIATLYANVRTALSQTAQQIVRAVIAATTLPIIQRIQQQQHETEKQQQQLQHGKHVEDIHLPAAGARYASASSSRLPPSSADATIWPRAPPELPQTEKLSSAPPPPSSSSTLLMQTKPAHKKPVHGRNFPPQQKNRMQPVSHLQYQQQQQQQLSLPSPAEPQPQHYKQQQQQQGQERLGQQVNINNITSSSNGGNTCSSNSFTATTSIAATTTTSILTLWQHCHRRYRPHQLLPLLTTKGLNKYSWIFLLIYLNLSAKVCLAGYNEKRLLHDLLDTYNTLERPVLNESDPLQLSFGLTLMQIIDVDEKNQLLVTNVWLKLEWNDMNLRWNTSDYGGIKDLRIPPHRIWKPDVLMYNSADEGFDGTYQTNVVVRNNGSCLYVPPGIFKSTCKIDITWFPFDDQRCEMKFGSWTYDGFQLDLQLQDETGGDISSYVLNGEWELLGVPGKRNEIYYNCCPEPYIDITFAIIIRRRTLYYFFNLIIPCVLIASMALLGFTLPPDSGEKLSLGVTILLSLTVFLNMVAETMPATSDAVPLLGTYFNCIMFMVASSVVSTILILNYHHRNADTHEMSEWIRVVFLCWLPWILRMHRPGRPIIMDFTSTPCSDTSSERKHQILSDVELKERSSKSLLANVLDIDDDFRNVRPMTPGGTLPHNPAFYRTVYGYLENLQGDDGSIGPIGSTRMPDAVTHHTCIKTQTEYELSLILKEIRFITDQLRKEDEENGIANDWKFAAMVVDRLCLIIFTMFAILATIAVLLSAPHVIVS
Experiment Summary: Displacement of [3H]IMI from Musca domestica (house fly) brain nicotinic acetylcholine receptor

>  <Structure Notation>
O=[N+]([O-])/N=C1\N(Cc2ccc(Cl)nc2)CCN1Cc1ccccc1-c1ccccc1CN1CCN(Cc2ccc(Cl)nc2)/C1=N\[N+](=O)[O-]

>  <Ki [µM]>
0.8

$$$$
>  <Structure Notation>
O=[N+]([O-])/N=C1/N(CCOCCN2CCN(Cc3ccc(Cl)nc3)/C2=N\[N+](=O)[O-])CCN1Cc1ccc(Cl)nc1

>  <Ki [µM]>
0.53

$$$$
>  <Structure Notation>
O=[N+]([O-])/N=C1\N(Cc2ccc(Cl)nc2)CCN1Cc1cccc(CN2CCN(Cc3ccc(Cl)nc3)/C2=N\[N+](=O)[O-])c1

>  <Ki [µM]>
2.77

$$$$
>  <Structure Notation>
O=[N+]([O-])/N=C1\N(Cc2ccc(Cl)nc2)CCN1Cc1ccc(CN2CCN(Cc3ccc(Cl)nc3)/C2=N\[N+](=O)[O-])s1

>  <Ki [µM]>
0.15

$$$$
>  <Structure Notation>
O=[N+]([O-])/N=C1/N(Cc2ccc(Cc3ccc(CN4CCN(Cc5ccc(Cl)nc5)/C4=N\[N+](=O)[O-])cc3)cc2)CCN1Cc1ccc(Cl)nc1

>  <Ki [µM]>
17

$$$$
>  <Structure Notation>
O=[N+]([O-])/N=C1\N(Cc2ccc(Cl)nc2)CCN1Cc1ccc(CN2CCN(Cc3ccc(Cl)nc3)/C2=N\[N+](=O)[O-])o1

>  <Ki [µM]>
0.03

$$$$
>  <Structure Notation>
O=C(CN1CCN(Cc2ccc(Cl)nc2)/C1=N\[N+](=O)[O-])OCCOC(=O)CN1CCN(Cc2ccc(Cl)nc2)/C1=N\[N+](=O)[O-]

>  <Ki [µM]>
1.55

$$$$
